# Tested on: ABIL (ammonia-binding liquid inoculum), nitrifying microbial enrichment containing both AOA and AOB
# Measurement description: Nitrification inhibition assay on ABIL (ammonium consumption)
# Assay type: cell-based
# Test context: 10 µM compound; structural variants outside formula (I); read-out: Relative nitrification (%) by ABIL treated with 10 µM compound
Task for the reader: assign each of the following compounds its reported activity at 10 µM.
Numbers only, in %.

Dear reader, for each entry below, please note its activity at 10 µM.
1. O=S(=O)(Cc1ccccc1F)Nc1ccc2[nH]ncc2c1
2. O=C(Nc1ccc(C(=O)Nc2cccc3cn[nH]c23)cc1)c1ccccc1

a:
100
100

----------
# Tested on: ABIL (ammonia-binding liquid inoculum), nitrifying microbial enrichment containing both AOA and AOB
# Measurement description: Nitrification inhibition assay on ABIL (ammonium consumption)
# Assay type: cell-based
# Test context: 24 h, 10 µM compound; 24 h; 0% = as strong as 100 µM PTIO, 100% = no inhibition; read-out: ABIL - relative nitrification (%) at 10 µM
Readout kind: activity at 10 µM (%)
Answers are plain numbers, in %.

CCC(C)NC(=O)c1cc(C(C)C)nc2c1cnn2C(C)C (centres unmarked) : 61

Please supply activity at 10 µM for each of the following items, keeping them in order.
1. CC(C)n1ncc2c(C(=O)NCCc3ccccn3)cc(C3CC3)nc21
2. CC(C)c1cc(C(=O)N2CCSCC2)c2cnn(C(C)C)c2n1
3. Cc1nn(C)c2nc(C3CC3)cc(C(=O)N(C)CC(=O)Nc3ccc(Cl)c(Cl)c3)c12
4. CCCN(C)C(=O)c1cc(C2CC2)nc2c1cnn2C(C)C

a:
1: 19; 2: -31; 3: 68; 4: 69
